Listing of entries alongside the reported TGI.
# Test system: NCI-H23 lung
# Procedure text: NCI tumour cell line growth inhibition, 48 h

Use these answered entries as a reference point.
>>> result("COC(=O)/C(C#N)=C1\\N=NNN1c1ccc(OC)cc1")
"> 100 µM"
>>> result("Cc1c2cc[n+](C)c(C)c2cc2c1[nH]c1ccccc12")
"16.3 µM"
>>> result("CNCCOC(=O)/C=C1\\CC[C@H]2[C@@H]([C@@H](O)C(=O)[C@@H]3[C@]2(C)CC[C@H](O)[C@]3(C)C(=O)OC)[C@H]1C")
"0.644 µM"

Let us move to another entry and its TGI.
Reported TGI, compound CC(NC(=O)Cc1ccccc1)NC(=O)C(C)C(=O)Nc1ccccc1 (stereo not given) : ____
> 100 µM

* * *

# Test system: UACC-62 melanoma
# Procedure text: NCI tumour cell line growth inhibition, 48 h
Value type: TGI

Worked examples, 5 compounds total:
>>> result("S=C1NC2=C(CSC/C2=C\\c2cccc(Br)c2)C(c2cccc(Br)c2)N1 (stereo unspecified)")
"> 100 µM"
>>> result("CC1(C)COC(c2cccc3c2C(=O)c2cccc(Cl)c2-3)=N1")
"> 100 µM"
>>> result("O=C(/C=C/c1ccccc1)Oc1ccc(C(=O)/C=C/c2ccccc2)cc1")
"17.7 µM"
>>> result("Cc1c2n(c(=O)[nH]c1=O)C1OC(CO)C(N=[N+]=[N-])C1O2 (stereo unspecified)")
"> 100 µM"
>>> result("COc1cnc2c(c1)C(=O)c1c-2n(CCCN2CCOCC2)c(=O)c2cc(Cl)ccc12")
"> 100 µM"

Attention now shifts to the item below.
Give its TGI value. Item: CSc1nc(SC)c2c(C#N)[nH]nc2n1
> 100 µM

* * *

# Test system: HCT-15 colon
# Procedure text: NCI tumour cell line growth inhibition, 48 h
# binarize TGI: threshold 30 µM inclusive, high side true, low side false

Would you please look over these solved cases?
>>> qualitative_label("N=c1c2c(-c3ccccc3)c(-c3ccccc3)n(Cc3ccccc3)c2ncn1C1CCC(O)CC1 (centres undefined)")
"false"
>>> qualitative_label("CN1CCN(c2ccc(Nc3cc(-c4cccc(-n5ccc6cc(C7CC7)cc(F)c6c5=O)c4CO)cn(C)c3=O)nc2)CC1")
"false"
>>> qualitative_label("O=C(CC1C(=O)Nc2ccccc2S1=O)Nc1cc(Cl)ccc1Cl (centres undefined)")
"true"
>>> qualitative_label("CC(=O)ON1CCCC(P(=O)(OCCSC(=O)C(C)(C)C)OCCSC(=O)C(C)(C)C)C1=O (centres undefined)")
"true"
>>> qualitative_label("COc1ccc2nc3ccccc3c(NCc3ccc(F)cc3)c2c1")
"false"

Please indicate if the recorded TGI for O=C1CCC2(c3ccc(Cl)cc3)Nc3cc(Cl)ccc3N12 (centres undefined) meets or exceeds 30 µM.
false

Now this one: Cc1cccc(C)c1NC(=O)C(Cc1c[nH]c2ccccc12)NC(=O)OCc1ccccc1 (centres undefined)
true

Entry to check: CC1(C)OC[C@@H](O)[C@H](C#N)CO1
true

Now the same for CC(=O)NC1C(OCc2ccccc2)OC(CO)C(O)C1OCC(=O)N[C@@H](C)C(=O)N[C@H](CCC(=O)NCCCNc1c2ccccc2nc2cccc([N+](=O)[O-])c12)C(N)=O (some centres undefined)
false

* * *

# Test system: SN12C renal
# Procedure text: NCI tumour cell line growth inhibition, 48 h
Listing of recorded TGI by entry.

# example entries with known answers
>>> result("COc1cc2c(cc1OC)C1C3CCCCC3CCN1CC2 (stereo unspecified)")
"> 100 µM"
>>> result("CC(C)C1=Cc2ccc3c(c2C(=O)C1=O)CCCC3(C)C")
"13.9 µM"
>>> result("CC1CC2CCCC(O)=C2C(=O)O1 (stereo unspecified)")
"> 100 µM"
>>> result("COc1ccc2/c(=C/c3ccc(N(C)C)cc3)c3cc(-c4ccccc4)[n+](C)n3c2c1")
"1.6 µM"
>>> result("CSc1nc(SC)c2c(C#N)[nH]nc2n1")
"> 100 µM"

Which measured TGI value corresponds to O=C(O)COc1ccccc1C(=O)Nc1ccccc1 ?
> 100 µM

Follow-up entry: COc1c(O)c2c(=O)cc3c4c5c(cc(=O)c6c(O)c(OC)c(CC(C)O)c(c(c1CC(C)O)c24)c65)OCO3 (stereo unspecified)
3.18 µM

Now the same for O=C(Nc1ccc(Br)cc1F)c1cc(Cl)ccc1O
5.68 µM

Queued: O=C(/C(=C/c1ccc(Cl)cc1)c1ccccc1)c1ccccc1
31.7 µM

Now give it for O=C(c1ccco1)c1c(C(F)(F)F)nc2ccc(Cl)cc2[n+]1[O-] too.
> 100 µM

Field entry: CC(=O)Nc1ccc(-c2csc(Nc3cccc(-c4csc(C)n4)c3)n2)cc1
6.78 µM

* * *

# System: UACC-257 melanoma
# Procedure text: NCI tumour cell line growth inhibition, 48 h
Value type: TGI

>>> result("CN1C(=O)c2ccccc2NC(=O)C12O[C@@H]2c1ccccc1 (stereo partly drawn)")
"> 100 µM"

Could you now look at the following compound, please?
Provide value of TGI for this record tested with UACC-257 melanoma: O=c1oc2cc(O)ccc2c(O)c1C(c1ccccc1)c1c(O)c2ccc(O)cc2oc1=O
> 100 µM

* * *

Measured TGI, listed per entry for reference.
# Test system: MDA-MB-435
# Procedure text: NCI tumour cell line growth inhibition, 48 h
Enter your answer as a number in µM; do not include the unit.

Worked cases, TGI given:
>>> numeric_result("Nc1ncc(-c2ccc3ncnc(Nc4ccc(F)c(Cl)c4)c3c2)cn1")
13.4
>>> numeric_result("CC1(C)OC2C(CO[Si](C)(C)C(C)(C)C)OC(n3c(I)c(C#C[Si](C)(C)C)c(=O)[nH]c3=O)C2O1 (centres undefined)")
44.3
>>> numeric_result("OC[C@H]1O[C@@H]2O[C@@](COCc3ccccc3)([C@H](OCc3ccccc3)[C@H]2O)[C@@H]1OCc1ccccc1")
31.8

Query compound follows.
Look at this compound and give its reported TGI. CNc1cc2c(c3ccccc13)C(CCl)CN2C(=O)c1cc2cc(OC)c(OC)c(OC)c2[nH]1 (centres undefined)
0.0131

* * *

# Tested on: HCT-15 colon
# Procedure text: NCI tumour cell line growth inhibition, 48 h
Measured TGI, listed per entry.

Example entries begin here.
>>> result("Cc1c2n(c(=O)[nH]c1=O)C1OC(CO)C(N=[N+]=[N-])C1O2 (stereo unspecified)")
"> 100 µM"
>>> result("CCOc1ccc(/C=C2\\N=C(c3ccc([N+](=O)[O-])cc3)OC2=O)cc1")
"> 100 µM"
>>> result("COC(=O)/C(C#N)=C1\\N=NNN1c1ccc(OC)cc1")
"> 100 µM"
>>> result("COc1ccc(-c2ccc(=O)oc2C#Cc2cc(OC)c(OC)c(OC)c2)cc1O")
"> 100 µM"
>>> result("O=C(Nc1ccc(Br)cc1F)c1cc(Cl)ccc1O")
"10.5 µM"

Now consider a different molecule.
Need TGI, item CC1=Cc2cccc(C)c2C(=O)C1=O
16.4 µM

* * *

# System: MDA-N
# Procedure text: NCI tumour cell line growth inhibition, 48 h
Value type: TGI

>>> result("C=CCc1cc(-c2nc(=S)[nH][nH]2)ccc1N=NNc1ccc(C(=O)O)cc1")
"> 100 µM"
>>> result("COc1cc(C(=O)N2CCN(C(=O)c3cc(OC)c(OC)c(OC)c3)C2=S)cc(OC)c1OC")
"33.9 µM"
>>> result("CCC(C)(C)c1ccc(OCCCCNC(=O)c2ccc3ccccc3c2O)c(C(C)(C)CC)c1")
"> 100 µM"

Item under review: CC1=CCC([C@@](C)(O)CCCC(C)(C)N=C=S)CC1 (stereo not given in full) . Reported TGI?
32.4 µM

And what about the compound CC(c1ccccc1)N1CCN(C(C)c2ccccc2)CC1 (stereo not given) ?
> 100 µM

What do we get for N#CC(C#N)=C1SC(=Nc2ccccc2)C(=Nc2ccccc2)N1c1ccccc1 ?
37.8 µM

Now this one: CC(=NNC(=S)Nc1ccccc1)c1cccc(C(C)=NNC(=S)Nc2ccccc2)n1
> 100 µM

Also O=c1[nH][nH]c(=O)n1CCCCCCn1c(=O)[nH][nH]c1=O ?
> 100 µM

Moving on to COc1ccc(C(=O)/C=C/c2ccc(OCCCOc3ccc(/C=C/C(=O)c4ccc(OC)cc4)cc3)cc2)cc1
> 100 µM

How about this compound: CN1CCOC1c1ccccc1O (stereo not given)
> 100 µM

Next compound: C=C(C(=O)OCC)C(=O)OCC
> 100 µM

Input CCN1CN(c2ccccc2)C2(CCN(CC3COc4ccccc4O3)CC2)C1=O (stereo not given)
6.54 µM

What do you have for O=C(O)CN1CCNCCN(CC(=O)O)CCN(CC(=O)O)CCNCC1 ?
> 100 µM

Ok, now Cc1nn(-c2ccccc2)c2c1C(c1cc3ccccc3nc1Cl)NC(=O)N2 (stereo not given)
37.2 µM

Now consider O=[N+]([O-])C(=C(Nc1ccccc1)Nc1ccccc1)C(Cl)=C(Cl)Cl and answer again.
27.2 µM

Record: C/C(N=NC(=S)N1CC2CCC(CC2)C1)=C1\C=CC=CN1O
> 100 µM

S=c1c2cn[nH]c2nc2scc(-c3ccc(Cl)cc3)n12 , same question.
26.2 µM
